Settings: basic group
Rule: pKa under 8 gives not satisfied, otherwise satisfied.

Q: # bool: pKa of Nc1ccc(Sc2ccc(N)cc2)cc1 >= 8
Ans: not satisfied

Q: Same question, CC(CC(O)(c1ccccc1)c1ccccc1)N1CCCCC1 (configuration not stated) this time
Ans: satisfied

Q: Same question, CCCN(CCC)CCC this time
Ans: satisfied

* * *

Conditions: acidic group
ASSAY READOUT: pKa
Hey, just send me the number, nothing else.

Example results:
INSERT INTO measurements (item_smiles, obs_value) VALUES
  ('O=C(O)c1cccc([N+](=O)[O-])c1', 3.47),
  ('CC(C)(C)C(=O)CC(=O)C(C)(C)C', 11.8),
  ('Nc1nccc2c1[nH+]cn2CCOCP(=O)([O-])O', 6.56);

Q: Any idea what pKa was measured for C=C(C)[C@H]1C[NH2+][C@H](C(=O)O)[C@H]1CC(=O)O ?
Ans: 2.1

Q: Same question, Cn1nc(-c2ccccc2)cc1O this time
Ans: 10.9

Q: Same question, Cc1nnc(C)n1O this time
Ans: 6.5

Q: Same question, O=C1CN(C(=O)c2ccccc2)C(=S)N1 this time
Ans: 6.5

Q: Same question, C/C(=N\O)NO this time
Ans: 10.8
